- test.target: Mitogen-activated protein kinase 10 (Homo sapiens) (UniProt P53779)
- Sequence (P53779 whole entry, looked up): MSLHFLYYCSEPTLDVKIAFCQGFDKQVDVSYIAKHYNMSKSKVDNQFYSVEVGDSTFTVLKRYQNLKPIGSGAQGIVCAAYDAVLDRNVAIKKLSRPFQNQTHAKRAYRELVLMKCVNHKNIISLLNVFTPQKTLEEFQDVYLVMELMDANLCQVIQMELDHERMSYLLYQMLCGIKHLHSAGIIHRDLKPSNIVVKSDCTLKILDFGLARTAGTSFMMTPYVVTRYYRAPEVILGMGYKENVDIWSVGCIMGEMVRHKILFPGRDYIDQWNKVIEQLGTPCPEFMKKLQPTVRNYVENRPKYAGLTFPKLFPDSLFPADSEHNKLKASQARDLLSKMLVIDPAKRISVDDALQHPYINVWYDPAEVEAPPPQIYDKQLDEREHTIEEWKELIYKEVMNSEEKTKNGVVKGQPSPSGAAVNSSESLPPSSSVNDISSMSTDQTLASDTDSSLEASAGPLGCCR
- assay.comment: JNK3 kinase activity inhibitors, primary screen, biochemical, human, purified enzyme (AID 746);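 further: 0% = DMSO and 100% = reference inhibitor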
- setup.conditions: HTS, at 8 µM, stronger effect = higher value
Among all 60,000 compounds or so, about 370 (0.62%) were called active. This excerpt belongs to a sample that is enriched for actives.
measurement.name: inhibition (%)
# output: bare number, implied unit %

Known results for compounds:
Which measured inhibition value corresponds to CCN=C1SC(CC(=O)Nc2ccc(C)cc2)C(=O)N1CC (centres undefined) ? 0.86

Let us now turn to COc1ccc2c(c1)C=CC1(O2)N(CCO)c2ccccc2C1(C)C (centres undefined) -1.22

Let us now turn to O=S(N1CCCCCC1)C12CC3CC(CC(C3)C1)C2 (centres undefined) 8.25

***
Which measured inhibition value corresponds to CCOC(=O)C1CCCN(C(=O)Cn2ncc3c(=O)oc4ccc(C)cc4c32)C1 (centres undefined) ? 0.71

Let us now turn to O=C(Cn1[nH]c(=O)c2ccccc2c1=O)Nc1cccc(-c2nnc3n2CCCCC3)c1 -2.76

Let us now turn to CCCn1c(SCC(=O)Nc2c(C)cccc2C)nnc1C(C)C -2.91

Let us now turn to COc1ccc(C)c2sc(=NC(=O)c3ccc(C#N)cc3)n(C)c12 1.99

Let us now turn to O=c1c2c(nc3n1CCCCC3)sc1c(O)cccc12 19.3

Let us now turn to O=C1NC2(CCCCC2)N=C1c1ccccc1 0.31

Let us now turn to CCOc1ccc(CCNC(=O)C2CCN(c3ccc(N4CCOCC4)nn3)CC2)cc1OCC -3.01

Let us now turn to COCCCn1c2nc3ccccc3nc2c2c(=O)n(Cc3ccc(Cl)cc3)c(C)nc21 3.15
